These measurements were taken from PubChem BioAssay (NCI).

tested on: HCC-2998 colon; assay: NCI-60 one-dose screen, 48 h; conditions: 10 µM unless noted
Compounds without any hit were thinned out: in the full panel of roughly 83,000, 20% have a hit. The source made the active and inactive calls. How the source made its calls: active means growth percent below 10; inactive means the rest.
Possible outcomes: active, inactive

molecule=CCOC(=O)c1c(NC(=O)c2ccccc2)sc2c3c(ccc12)OCN(C)C3 subject_of_test="HCC-2998 colon" qualitative_label=active
molecule="O=C(/C=C/C12c3ccccc3C(c3ccccc31)C1C(=O)NC(=O)C12)c1ccc(Cl)cc1Cl (stereo not given)" subject_of_test="HCC-2998 colon" qualitative_label=inactive
molecule=Nc1nc(N(Cc2ccccc2)c2ccccc2)c2cn[nH]c2n1 subject_of_test="HCC-2998 colon" qualitative_label=inactive
molecule=N=C(N)c1ccc(-c2ccc(-c3cc(Cl)cc(Cl)c3)s2)s1 subject_of_test="HCC-2998 colon" qualitative_label=active
molecule=O=[N+]([O-])c1ccccc1Sc1ccccc1[N+](=O)[O-] subject_of_test="HCC-2998 colon" qualitative_label=inactive
molecule=C=C1C(=O)O[C@H]2[C@H]1CC/C(COC(=O)NCc1ccc(Cn3c(=O)sn(-c4ccccc4)c3=O)cc1)=C\CC[C@@]1(C)O[C@@H]21 subject_of_test="HCC-2998 colon" qualitative_label=inactive
molecule=Cc1cccc(NC(=O)N/C(N)=N/c2nc3ccccc3s2)c1 subject_of_test="HCC-2998 colon" qualitative_label=inactive
molecule="C#Cc1cccc(NC(=O)C2CCCCN2C(=O)CCl)c1 (stereo not given)" subject_of_test="HCC-2998 colon" qualitative_label=active
molecule=COc1ccc(OC)c(Nc2nnc(-c3cc(OC)c(OC)c(OC)c3)o2)c1 subject_of_test="HCC-2998 colon" qualitative_label=inactive
molecule=O=S(O)c1cc(Cl)cc(Cl)c1OCc1ccccc1 subject_of_test="HCC-2998 colon" qualitative_label=inactive
molecule=CCOc1ccc(NC(=O)Nc2ccc(OCC)cc2)cc1 subject_of_test="HCC-2998 colon" qualitative_label=inactive
molecule=C=C1CC[C@@H]2C(C)(C)[C@H](O)CC[C@@]2(C)[C@@H]1COc1ccc2ccc(=O)oc2c1 subject_of_test="HCC-2998 colon" qualitative_label=inactive
molecule=Cn1cc(-c2nonc2-c2c[nH]c3ccccc23)c2cc(Br)ccc21 subject_of_test="HCC-2998 colon" qualitative_label=inactive
molecule=Oc1nc(NCc2ccccc2)sc1/C=C1\C=Nc2ncccc21 subject_of_test="HCC-2998 colon" qualitative_label=inactive
molecule=N#Cc1c(-c2ccc(Cl)cc2)nc(NN=Cc2ccc[nH]2)nc1N1CCOCC1 subject_of_test="HCC-2998 colon" qualitative_label=inactive
molecule=Nc1ccc(-c2ccncc2)cc1NC(=O)N1CCCC1 subject_of_test="HCC-2998 colon" qualitative_label=inactive
molecule=O=C(/C=C/c1cccc(Oc2ccccc2)c1)c1ccc(Nc2nc(Nc3ccc(F)cc3)nc(Nc3ccc(Cl)cc3)n2)cc1 subject_of_test="HCC-2998 colon" qualitative_label=inactive
molecule=O=c1ccc2ccc(OCCN3CCCCC3)cc2o1 subject_of_test="HCC-2998 colon" qualitative_label=inactive
molecule=COc1ccc(/C=C(\C(=O)NCc2cccnc2)S(=O)(=O)c2ccccc2)cc1OC subject_of_test="HCC-2998 colon" qualitative_label=inactive
molecule=CC1=C2CC/C(C)=C/CC[C@]3(C)O[C@H]3CC/C(C)=C/[C@H]2OC1 subject_of_test="HCC-2998 colon" qualitative_label=inactive
molecule="CN(C)CCCC1(c2ccc(F)cc2)OCc2cc(-c3csc4ccccc34)ccc21 (stereo not given)" subject_of_test="HCC-2998 colon" qualitative_label=active
molecule=c1ccc(Nc2nc3c(s2)CCc2c[nH]cc2-3)nc1 subject_of_test="HCC-2998 colon" qualitative_label=inactive
molecule="CC(C)C1C2=C(NCCN1C(=O)c1ccncc1)C(C)(C)N(Cc1ccccc1)C2=O (stereo not given)" subject_of_test="HCC-2998 colon" qualitative_label=inactive
molecule="COc1ccc(C(c2cc(OC)c(OC)c(OC)c2)N2CCCCC2)cc1 (stereo not given)" subject_of_test="HCC-2998 colon" qualitative_label=inactive
molecule=FC(F)(F)c1[nH]ncc1-c1nc2ccc3[nH]ncc3c2c2c1CCCC2 subject_of_test="HCC-2998 colon" qualitative_label=active
molecule="CC1SC(c2ccccc2O)N(NC(=O)CCC(=O)c2nc3ncccc3[nH]2)C1=O (stereo not given)" subject_of_test="HCC-2998 colon" qualitative_label=inactive
molecule=C=C(c1ccc(C(=O)O)c(F)c1)c1cc2c(cc1C)C(C)(C)CCC2(C)C subject_of_test="HCC-2998 colon" qualitative_label=inactive
molecule=O=C1/C(=C/c2ccc(Cl)cc2)CN(C(=O)C(Cl)Cl)C/C1=C\c1ccc(Cl)cc1 subject_of_test="HCC-2998 colon" qualitative_label=active
molecule="CCCC(O)Cn1ncc(C(=O)OCC)c1NC(=O)NCc1cccc(C(F)(F)F)c1 (stereo not given)" subject_of_test="HCC-2998 colon" qualitative_label=inactive
molecule=COc1ccc(C/C(C)=C(\c2ccc(O)cc2)c2ccc(OCCN3CCCCC3)cc2)cc1 subject_of_test="HCC-2998 colon" qualitative_label=inactive
molecule="O=C(/C=C/C12c3ccccc3C(c3ccccc31)C1C(=O)NC(=O)C12)c1ccco1 (stereo not given)" subject_of_test="HCC-2998 colon" qualitative_label=inactive
molecule=Cc1[nH]n(-c2cccc(Cl)c2)c(=O)c1/C=C1\C=c2ccccc2=CC1=O subject_of_test="HCC-2998 colon" qualitative_label=active
molecule=Nc1c(Br)cc2c(c1Br)Cc1cc([N+](=O)[O-])ccc1-2 subject_of_test="HCC-2998 colon" qualitative_label=inactive
molecule=C/C(=C(\c1ccc(OCCN2CCCCCC2)cc1)c1ccc(OC(=O)c2ccccc2)cc1)c1ccc(Cl)cc1 subject_of_test="HCC-2998 colon" qualitative_label=inactive
molecule=Oc1ccc(-c2nc3ccc4[nH]ncc4c3c3c2CCCC3)c(F)c1 subject_of_test="HCC-2998 colon" qualitative_label=inactive
molecule=Cc1cc(=O)n(C(=S)Nc2ccc(Cl)cc2)c2cc(O)ccc12 subject_of_test="HCC-2998 colon" qualitative_label=inactive
molecule=CN(C)CCC(=O)C1CC1 subject_of_test="HCC-2998 colon" qualitative_label=inactive
molecule="CC12OC(CC(O)C1O)n1c3ccccc3c3c4c(c5c6ccccc6n2c5c31)C(=O)N(CCN1CCCC1)C4=O (stereo not given)" subject_of_test="HCC-2998 colon" qualitative_label=inactive
molecule="COc1ccc2c(c1)CC[C@@H]1[C@@H]2CC[C@]2(C)C3C(=CC(COC(C)=O)C4C(=O)N(c5ccc(Cl)cc5)C(=O)C43)C[C@@H]12 (stereo not given in full)" subject_of_test="HCC-2998 colon" qualitative_label=inactive
molecule=O=C(O)CCCCCCCCCCN1C(=O)/C(=C2/C(=O)N(CC(=O)O)c3ccc(Br)cc32)SC1=S subject_of_test="HCC-2998 colon" qualitative_label=inactive

----------
Below, each entry is listed with its recorded growth.
tested on: UO-31 renal; experiment: NCI-60 one-dose screen, 48 h (100 = growth as untreated, 0 = no growth, -100 = all killed); details: 10 µM unless noted
The panel holds about 83,000 compounds, 20% with a hit somewhere; the sample as a whole holds those more often.
reported_property: growth (%)

compound=C/C(=N\Nc1ccccc1)c1ccc(NC2=CC(=O)c3ccccc3C2=O)cc1 subject_of_test="UO-31 renal" assay_value=38.8
compound="COc1cc(N2C(=O)[C@H](Cl)C2c2ccc(SC)cc2)cc(OC)c1OC (stereo not given in full)" subject_of_test="UO-31 renal" assay_value=40.6
compound=Cc1ccc(Cc2cnc(NC(=O)/C=C/c3ccc(C)o3)s2)cc1 subject_of_test="UO-31 renal" assay_value=48.5
compound="O=C1CCC(C(=O)N/N=C/c2cc(F)ccc2F)N1 (stereo not given)" subject_of_test="UO-31 renal" assay_value=92.4
compound=COc1cc(/C=C/c2cn[nH]c2-c2ccc(C)cc2)cc(OC)c1OC subject_of_test="UO-31 renal" assay_value=45.9
compound=Nc1cc(C(=O)O)cc(-n2c(O)c(C=C3N=c4ccccc4=N3)sc2=S)c1 subject_of_test="UO-31 renal" assay_value=69.5
compound=COc1cc(-c2ccc(-c3ccc(C(=N)N)cc3)s2)cc(OC)c1OC subject_of_test="UO-31 renal" assay_value=79.3
compound=O=C(/C=C/c1cccc(Oc2ccccc2)c1)c1ccc(Nc2nc(Nc3ccc(F)cc3)nc(Nc3ccc(Cl)cc3)n2)cc1 subject_of_test="UO-31 renal" assay_value=91.8
compound=Cn1c2ccccc2c2c3c(c4c5cc(Br)ccc5n(C)c4c21)C(=O)N(O)C3=O subject_of_test="UO-31 renal" assay_value=2.59
compound="Cc1oc(-c2ccc(Cl)cc2)nc1C1=NN(C(=O)c2ccncc2)C(c2ccccc2)C1 (stereo not given)" subject_of_test="UO-31 renal" assay_value=59.5

----------
system: MDA-MB-231 breast; assay: NCI-60 one-dose screen, 48 h (100 = growth as untreated, 0 = no growth, -100 = all killed); conditions: 10 µM unless noted
This is part of a sample that, as a whole, favours compounds with a hit. Of some 83,000 tested, about 20% had one in any assay.
Below, each entry is listed with its recorded growth.
reported_property: growth (%)

compound=COC(=O)[C@]1(C)CCC[C@]2(C)[C@H]3C[C@@H]4[C@H]5[C@@H]6CC/C(=N\OCC/C(N)=N/O)[C@H]5[C@@]3(CC[C@H]21)CC4(C(C)C)O6 reported_property=growth assay_value=61.2
compound=O=C(NCCN1CCOCC1)OCc1ccc2c(Cl)cc(Cl)c(O)c2n1 reported_property=growth assay_value=93.8
compound=CCCCCCCCn1ccc2cc(NC(=O)CN=[N+]=[N-])ccc21 reported_property=growth assay_value=101
compound=CC(C)(C)OC(=O)CN1CCc2c(sc3ncnc(N4CCN(c5ccc(F)cc5)CC4)c23)C1 reported_property=growth assay_value=75.7
compound=c1ccc2cc(Cn3cc(CSc4nc5ccccc5s4)nn3)ccc2c1 reported_property=growth assay_value=89.3
compound=COc1ccc(-c2cc(-c3cccnc3)nc3sc4c(N)c(C(C)=O)c(-c5ccccc5)nc4c23)cc1OC reported_property=growth assay_value=51.5
compound=O=C1Nc2ccc(Cl)cc2/C1=C/c1ccc[nH]1 reported_property=growth assay_value=40.7
compound=COCC(=O)Oc1cc(-c2ccc(C)cc2C)c(OC(=O)COC)c(-c2ccc(C)cc2C)c1 reported_property=growth assay_value=49.7
compound="O=C1C=CC2(O)OC/C(=C\\c3ccccc3)C(O)=C2C1=O (centres undefined)" reported_property=growth assay_value=-22.4
